Sourced from patent US20210267989A1

Target: recombinant full-length (fl)Tau aggregates (longest isoform of human Tau, 2N4R; 441 amino acids) (Homo sapiens, UniProt P10636)
Construct: 35 μM of recombinant full-length (fl)Tau in PBS were aggregated for 24 hours
Sequence (P10636 1-441 isoform P10636-8): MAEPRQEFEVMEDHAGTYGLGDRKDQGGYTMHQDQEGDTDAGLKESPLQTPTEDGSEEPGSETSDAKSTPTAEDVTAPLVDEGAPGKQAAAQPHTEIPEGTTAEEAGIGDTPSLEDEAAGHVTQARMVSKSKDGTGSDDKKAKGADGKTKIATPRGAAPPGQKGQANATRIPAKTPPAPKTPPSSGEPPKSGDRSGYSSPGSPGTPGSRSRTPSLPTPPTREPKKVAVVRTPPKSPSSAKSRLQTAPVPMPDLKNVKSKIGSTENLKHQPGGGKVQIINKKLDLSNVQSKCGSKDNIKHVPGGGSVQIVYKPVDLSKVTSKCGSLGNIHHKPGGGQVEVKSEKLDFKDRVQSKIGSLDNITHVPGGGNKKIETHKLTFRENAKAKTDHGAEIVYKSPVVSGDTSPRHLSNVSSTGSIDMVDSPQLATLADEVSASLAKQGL
Assay: Full-length Tau (flTau) disaggregation assay by Thioflavin T (ThT)
Conditions: ThT fluorescence; 2 μM flTau aggregates, 30 minutes at RT
pEC50: −log10 of the molar value. Structures can show the parent of a compound that is named as a salt.
Please provide measured pEC50 for the entries that follow.

molecule | reported
COc1ccc2c(c1)c1c(n2C)CN(c2ccc3nc(N(C)C)oc3c2)CC1 [Example 19] | > 5.00
CN(C)c1nc2ccc(N3CCc4c(n(C)c5ccccc45)C3)cc2s1 [Example 2] | > 5.00
C[C@@H]1CN(c2ccc(N3CCc4c([nH]c5ccccc45)C3)cn2)CCO1 [Example 75 HCl] | > 5.00

Field: pEC50. Fill in for each record below.
1. COc1ccc2c(c1)c1c(n2C)CN(c2ccc3sc(N4CCOCC4)nc3c2)CC1 [Example 14]
2. Fc1ccc2c3c([nH]c2c1)CN(c1ccc(N2CCOCC2)cn1)CC3 [Example 109 HCl]
3. C[C@H]1COCCN1c1ccc(N2CCc3c([nH]c4ccccc34)C2)cn1 [Example 79 HCl]
4. c1ccc2c3c([nH]c2c1)CN(c1ccc(N2CC4COCC4C2)nc1)CC3 (stereo not drawn) [Example 69 HCl]
5. Cn1c2c(c3cc(F)ccc31)CCN(c1ccc(N3CCOCC3)nc1)C2 [Example 8]

1. > 5.00
2. > 5.00
3. 4.60 to 5.00
4. > 5.00
5. > 5.00

Go through the list and state pEC50 for each entry.
1. COc1ccc2c(c1)c1c(n2C)CN(c2ccc3oc(N4CCOCC4)nc3c2)CC1 [Example 16]
2. c1ccc2c3c([nH]c2c1)CN(c1ccc(N2C[C@H]4C[C@@H]2CO4)nc1)CC3 [Example 85 HCl]
3. CN(C)c1nc2ccc(N3CCc4c(n(C)c5ccc(F)cc45)C3)cc2o1 [Example 12]
4. CN(C)c1nc2cc(N3CCc4c(n(C)c5ccc(F)cc45)C3)ccc2s1 [Example 11]
5. COc1cc(N2CCc3c(n(C)c4ccc(F)cc34)C2)ccc1F [Example 9]
6. COc1ccc2c(c1)c1c(n2C)CN(c2ccc3nc(N4CCOCC4)sc3c2)CC1 [Example 15]

["> 5.00", "4.60 to 5.00", "> 5.00", "> 5.00", "> 5.00", "> 5.00"]

Provide pEC50 for all items below, preserving their order.
1. C[C@@H]1CN(c2ccc(N3CCc4c([nH]c5ccccc45)C3)cn2)C[C@H](C)O1 [Example 76 HCl]
2. Cn1c2c(c3ccc(F)cc31)CCN(c1ccc(N3CCOCC3)nc1)C2 [Example 110 HCl]
3. c1ccc2c3c([nH]c2c1)CN(c1ccc(N2CC4CC(C2)O4)nc1)CC3 [Example 71 HCl]
4. Cn1c2c(c3cc(F)ccc31)CCN(c1ccc3oc(N4CCOCC4)nc3c1)C2 [Example 104]
5. Cn1c2c(c3ccc(F)cc31)CCN(c1ccc3sc(N4CCOCC4)nc3c1)C2 [Example 7]
6. Cn1c2c(c3cc(F)cnc31)CCN(c1ccc(N3CCOCC3)cn1)C2 [Example 107 HCl]
7. COc1ccc2c(c1)c1c(n2C)CN(c2ccc3sc(N(C)C)nc3c2)CC1 [Example 17]
8. C[C@H]1CN(c2ccc(N3CCc4c([nH]c5ccccc45)C3)cn2)CCO1 [Example 74 HCl]

1: > 5.00; 2: > 5.00; 3: 4.60 to 5.00; 4: > 5.00; 5: > 5.00; 6: 4.30 to 4.60; 7: > 5.00; 8: > 5.00

---

Target: UniProtKB P10636
Test: Full-length Tau inhibition of aggregation assay by ThT (seeded with AD brain PHF)
Settings: 4 μM monomeric flTau + AD brain PHF 1:200, 72 h at 37° C.
parameter: IC50 (nM)
Give bare numbers, in nM.

compound | IC50 (nM)
c1ccc2c3c([nH]c2c1)CN(c1ccc(N2CCOCC2)nc1)CC3 [Example 44] | 390

// next entry
Can you look up the measured IC50 of Cn1c2c(c3ccccc31)CCN(c1ccc(N3CCOCC3)nc1)C2 [Example 46] for me?
1200

---

Biological target: Tau K18 fragment aggregates (amino acids 244 to 372 of human Tau441) (Homo sapiens, UniProt P10636)
Construct: encompassing amino acids 244 to 372 of the longest isoform (2N4R) of human Tau441
Assay: Tau K18 disaggregation assay by ThT
Conditions: ThT fluorescence; 2 μM K18 aggregates, 30 minutes at RT
Procedure: Tau K18 Disaggregation Assay by ThT The Tau K18 fragment, encompassing amino acids 244 to 372 of the longest isoform (2N4R) of human Tau441, was expressed in bacteria and purified or bought from SignalChem. […] Fluorescence (relative fluorescence units; RFU) was measured in monoplicate or duplicate on a Tecan reader (excitation: 440 nm; emission: 485 nm). […]
pEC50: −log10 of the molar value.
parameter: pEC50

Some molecules with known pEC50 results, for comparison:
structure string | pEC50
c1ccc2c3c([nH]c2c1)CN(c1ccc(N2CCOCC2)nc1)CC3 | > 5.00
c1ccc2c3c([nH]c2c1)CN(c1ccc(N2CCOCC2)cn1)CC3 | > 5.00
Fc1cccc2c3c([nH]c12)CN(c1ccc(N2CCOCC2)nc1)CC3 | > 5.00
COc1ccc2[nH]c3c(c2c1)CCN(c1ccc2nc(N(C)C)sc2c1)C3 | > 5.00
Cn1c2c(c3cccc(F)c31)CCN(c1ccc3oc(N4CCOCC4)nc3c1)C2 | > 5.00
Fc1ccc2[nH]c3c(c2c1)CCN(c1ccc(N2CCOCC2)cc1F)C3 | > 5.00

The following molecules each have a reported value; give each one's pEC50.
1. Fc1ccc2[nH]c3c(c2c1)CCN(c1ccc2sc(N4CCOCC4)nc2c1)C3
2. Cn1c2c(c3ccccc31)CCN(c1ccc(C#N)nc1)C2
3. Cn1c2c(c3ccccc31)CCN(c1ccc(N3CCOCC3)nc1)C2

1: > 5.00; 2: > 5.00; 3: > 5.00

// for each molecule below, give its pEC50
1. Fc1ccc2[nH]c3c(c2c1)CCN(c1ccc2ccc(N4CCOCC4)nc2c1)C3
2. Fc1ccc2c3c([nH]c2c1)CN(c1cnc(N2CCOCC2)c(F)c1)CC3
3. COc1ccc2c(c1)c1c(n2C)CN(c2ccc3oc(N(C)C)nc3c2)CC1
4. CN(C)c1nc2ccc(N3CCc4c(n(C)c5ccc(F)cc45)C3)cc2s1

4.60 to 5.00
4.60 to 5.00
> 5.00
> 5.00

---

Kindly supply the reported EC50 values for the records listed here.
Target: Tau K18 fragment aggregates (amino acids 244 to 372 of human Tau441) (Homo sapiens, UniProt P10636)
Construct: encompassing amino acids 244 to 372 of the longest isoform (2N4R) of human Tau441
Test: Tau K18 disaggregation assay by ThT
Details: ThT fluorescence; 2 μM K18 aggregates, 30 minutes at RT

compound | EC50
COc1ccc2c(c1)c1c(n2C)CN(c2ccc3nc(N4CCOCC4)oc3c2)CC1 [Example 20] | < 10 µM
C[C@H]1CN(c2ccc(N3CCc4c([nH]c5ccccc45)C3)nn2)CCO1 [Example 118] | < 10 µM
CN(C)c1nc2cc(N3CCc4c([nH]c5ccc(F)cc45)C3)ccc2s1 [Example 42] | < 10 µM
Fc1ccc2[nH]c3c(c2c1)CCN(c1cncc(N2CCOCC2)c1)C3 [Example 50] | 10 to 25 µM

Below is a list of compounds. For each, state its recorded EC50.
1. COc1ccc2[nH]c3c(c2c1)CCN(c1ccc2oc(N4CCOCC4)nc2c1)C3 [Example 33]
2. Cn1c2c(c3c(F)cccc31)CCN(c1ccc3oc(N4CCOCC4)nc3c1)C2 [Example 90]
3. c1ccc2c3c([nH]c2c1)CN(c1ccc2sc(N4CCOCC4)nc2c1)CC3 [Example 37]
4. c1ccc2c3c([nH]c2c1)CN(c1ccc(N2CCOCC2)nn1)CC3 [Example 68]

1: 10 to 25 µM; 2: < 10 µM; 3: 10 to 25 µM; 4: < 10 µM

What EC50 value was documented for this compound, Fc1cc(N2CCc3c([nH]c4ccccc34)C2)ccc1N1CCOCC1 [Example 58] ?
< 10 µM

---

Target: Aggregated human Tau in human neuroblastoma cell line overexpressing full-length human Tau P301L (Homo sapiens, UniProt P10636, P618L)
Construct: overexpressing the full-length form of human Tau carrying the P301L mutation; expressed in transfected cells; host or cells: human neuroblastoma cell line (G418 selection)
Sequence (P10636 1-441 isoform P10636-8 P301L): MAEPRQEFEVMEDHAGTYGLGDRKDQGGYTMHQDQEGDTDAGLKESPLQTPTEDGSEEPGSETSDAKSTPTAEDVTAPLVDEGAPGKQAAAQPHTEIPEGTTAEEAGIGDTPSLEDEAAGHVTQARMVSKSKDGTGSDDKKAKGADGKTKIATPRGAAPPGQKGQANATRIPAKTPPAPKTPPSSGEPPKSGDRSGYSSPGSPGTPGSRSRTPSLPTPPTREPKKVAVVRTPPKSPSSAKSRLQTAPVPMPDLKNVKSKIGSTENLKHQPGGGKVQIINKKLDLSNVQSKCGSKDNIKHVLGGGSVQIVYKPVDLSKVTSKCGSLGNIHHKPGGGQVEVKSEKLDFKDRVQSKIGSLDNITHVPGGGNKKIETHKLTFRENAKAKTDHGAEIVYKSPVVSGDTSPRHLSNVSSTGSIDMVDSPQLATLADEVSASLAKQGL
Experiment: Reduction of intracellular Tau aggregation (AlphaLISA, aggregated Tau normalized to total Tau)
Type: cell-based
Details: compound at 5 μM, 24 h, relative to DMSO-treated cells
parameter: % Reduction of intracellular Tau aggregation

Example results:
molecule | reported
c1ccc2c3c([nH]c2c1)CN(c1ccc2nc(N4CCOCC4)sc2c1)CC3 [Example 38] | + (+ % 25 < x < 10)
COc1ccc2c(c1)c1c(n2C)CN(c2ccc3oc(N(C)C)nc3c2)CC1 [Example 21] | + (+ % 25 < x < 10)
CN(C)c1nc2ccc(N3CCc4c(n(C)c5ccc(F)cc45)C3)cc2o1 [Example 12] | + (+ % 25 < x < 10)
c1ccc2c3c([nH]c2c1)CN(c1ccc(N2CCOCC2)cn1)CC3 [Example 43] | ++ (++ % 50 < x < 25)
Cn1c2c(c3ccccc31)CCN(c1ccc(N3CCOCC3)nc1)C2 [Example 46] | ++ (++ % 50 < x < 25)

We now examine a further molecule.
Give its % Reduction of intracellular Tau aggregation value. Item: Cn1c2c(c3ccccc31)CCN(c1ccc(N3CCOCC3)cn1)C2 [Example 45]
++ (++ % 50 < x < 25)
